Listing of entries alongside the reported MIC50.
Tested on: Acinetobacter baumannii
Assay: Antimicrobial activity against Acinetobacter baumannii by microdilution method
Format: functional
quantity: MIC50 (µg/mL)

# compound, quantity, result_value
rows = [
    ("NCC[C@H](O)C(=O)N[C@@H]1C[C@H](N)[C@@H](O[C@H]2O[C@H](CN)[C@@H](O)[C@H](O)[C@H]2O)[C@H](O)[C@H]1O[C@H]1O[C@H](CO)[C@@H](O)[C@H](N)[C@H]1O", "MIC50", 8),
    ("CC(C)(O/N=C(\\C(=O)N[C@@H]1C(=O)N2C(C(=O)[O-])=C(C[n+]3ccccc3)CS[C@H]12)c1csc(N)n1)C(=O)O", "MIC50", 64),
    ("C[C@@H](O)[C@H]1C(=O)N2C(C(=O)O)=C(SCCNC=N)C[C@H]12 [IMIPENEM ANHYDROUS]", "MIC50", 1),
    ("C[C@H]1COc2c(N3CCN(C)CC3)c(F)cc3c(=O)c(C(=O)O)cn1c23.C[C@H]1COc2c(N3CCN(C)CC3)c(F)cc3c(=O)c(C(=O)O)cn1c23.O", "MIC50", 8),
    ("CN(C)c1ccc(O)c2c1C[C@H]1C[C@H]3[C@H](N(C)C)C(O)=C(C(N)=O)C(=O)[C@@]3(O)C(O)=C1C2=O", "MIC50", 2),
]
